The origin of these recorded values is PubChem BioAssay (EPA / NIEHS).

# Read-out: Low-density lipoprotein receptor (LDLR), LDLR (gene 3949)
# measurement.description: BSK_CASM3C_LDLR: BioMAP Diversity Plus: CASM3C Assay for Low-density lipoprotein receptor (LDLR) Biomarker Activity (AID 2283045);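 note: LDLR protein level on the cell surface quantified by ELISA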
# protocol.conditions: primary human coronary artery smooth muscle cells; actives raise or lower the signal
Activity calls are given as the source filed them. Rule for the calls: active = hit-call score of the fitted dose curve at least 0.9, where 1 is the maximum; inactive = score below 0.9.
Just give me one of these, please: TRUE (active), FALSE (inactive)

Past entries and their recorded results:
{"molecule": "S=c1[nH]c2ccccc2s1", "label": "FALSE"}
{"molecule": "Cc1occc(=O)c1O", "label": "FALSE"}
{"molecule": "CC(N)=O", "label": "FALSE"}
{"molecule": "OCC(CO)n1cnc(-c2ccc(F)cc2)c1-c1ccnc(Oc2ccccc2)n1", "label": "FALSE"}
{"molecule": "Cc1ccc(C(C)(C)C)c(O)c1", "label": "FALSE"}
{"molecule": "C/C=C/C=C/C(=O)O", "label": "FALSE"}

# outcome recorded in this test, key = C=CCc1ccc(OC)c(OC)c1
FALSE
